B1: library; a variant is named by its letters at N, in order (parent)
chain: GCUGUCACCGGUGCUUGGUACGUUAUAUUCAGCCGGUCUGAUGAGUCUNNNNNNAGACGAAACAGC

Variants of: B1
Experiment: normalized RNA/DNA level with ligand (relative to sTRSVctl = 100) (log10 (% of sTRSVctl)); HEK293T overexpressing SLC46A1; ligand concentration (+) RNA-Seq: 6 mM; higher = less ribozyme self-cleavage, higher mRNA level
Conditions: with (6R,S)-folinic acid; ligand present: yes
EXPERIMENTAL_READOUT: normalized RNA/DNA level with ligand (log10)
Please give only the number in your answer, with no unit.

Worked set:
GCUGUCACCGGUGCUUGGUACGUUAUAUUCAGCCGGUCUGAUGAGUCUCACUUAAGACGAAACAGC [CACUUA]
1.97
GCUGUCACCGGUGCUUGGUACGUUAUAUUCAGCCGGUCUGAUGAGUCUGUACAUAGACGAAACAGC [GUACAU]
2.01
GCUGUCACCGGUGCUUGGUACGUUAUAUUCAGCCGGUCUGAUGAGUCUGGGUCCAGACGAAACAGC [GGGUCC]
2.06
GCUGUCACCGGUGCUUGGUACGUUAUAUUCAGCCGGUCUGAUGAGUCUCGAGUGAGACGAAACAGC [CGAGUG]
2.01
GCUGUCACCGGUGCUUGGUACGUUAUAUUCAGCCGGUCUGAUGAGUCUCAACUCAGACGAAACAGC [CAACUC]
2.06
GCUGUCACCGGUGCUUGGUACGUUAUAUUCAGCCGGUCUGAUGAGUCUAAGGUGAGACGAAACAGC [AAGGUG]
1.98
GCUGUCACCGGUGCUUGGUACGUUAUAUUCAGCCGGUCUGAUGAGUCUAAUCGAAGACGAAACAGC [AAUCGA]
2
GCUGUCACCGGUGCUUGGUACGUUAUAUUCAGCCGGUCUGAUGAGUCUAAGGGUAGACGAAACAGC [AAGGGU]
2.02
GCUGUCACCGGUGCUUGGUACGUUAUAUUCAGCCGGUCUGAUGAGUCUGCGUAUAGACGAAACAGC [GCGUAU]
2.06
GCUGUCACCGGUGCUUGGUACGUUAUAUUCAGCCGGUCUGAUGAGUCUCCGACGAGACGAAACAGC [CCGACG]
2.04

// normalized RNA/DNA level with ligand (log10) lookup, variant = GCUGUCACCGGUGCUUGGUACGUUAUAUUCAGCCGGUCUGAUGAGUCUGGCAAGAGACGAAACAGC [GGCAAG] , result: 2

// normalized RNA/DNA level with ligand (log10) lookup, variant = GCUGUCACCGGUGCUUGGUACGUUAUAUUCAGCCGGUCUGAUGAGUCUUAUUGUAGACGAAACAGC [UAUUGU] , result: 2

// normalized RNA/DNA level with ligand (log10) lookup, variant = GCUGUCACCGGUGCUUGGUACGUUAUAUUCAGCCGGUCUGAUGAGUCUUUAUUAAGACGAAACAGC [UUAUUA] , result: 1.99

// normalized RNA/DNA level with ligand (log10) lookup, variant = GCUGUCACCGGUGCUUGGUACGUUAUAUUCAGCCGGUCUGAUGAGUCUUAAACAAGACGAAACAGC [UAAACA] , result: 1.99

// normalized RNA/DNA level with ligand (log10) lookup, variant = GCUGUCACCGGUGCUUGGUACGUUAUAUUCAGCCGGUCUGAUGAGUCUCACACCAGACGAAACAGC [CACACC] , result: 2

// normalized RNA/DNA level with ligand (log10) lookup, variant = GCUGUCACCGGUGCUUGGUACGUUAUAUUCAGCCGGUCUGAUGAGUCUAGGUGUAGACGAAACAGC [AGGUGU] , result: 2.01

// normalized RNA/DNA level with ligand (log10) lookup, variant = GCUGUCACCGGUGCUUGGUACGUUAUAUUCAGCCGGUCUGAUGAGUCUGGGAACAGACGAAACAGC [GGGAAC] , result: 2.02

// normalized RNA/DNA level with ligand (log10) lookup, variant = GCUGUCACCGGUGCUUGGUACGUUAUAUUCAGCCGGUCUGAUGAGUCUACGACGAGACGAAACAGC [ACGACG] , result: 2.03

// normalized RNA/DNA level with ligand (log10) lookup, variant = GCUGUCACCGGUGCUUGGUACGUUAUAUUCAGCCGGUCUGAUGAGUCUUUGUGAAGACGAAACAGC [UUGUGA] , result: 2.04

// normalized RNA/DNA level with ligand (log10) lookup, variant = GCUGUCACCGGUGCUUGGUACGUUAUAUUCAGCCGGUCUGAUGAGUCUCAUGGAAGACGAAACAGC [CAUGGA] , result: 2.04

// normalized RNA/DNA level with ligand (log10) lookup, variant = GCUGUCACCGGUGCUUGGUACGUUAUAUUCAGCCGGUCUGAUGAGUCUAAGCGGAGACGAAACAGC [AAGCGG] , result: 2

// normalized RNA/DNA level with ligand (log10) lookup, variant = GCUGUCACCGGUGCUUGGUACGUUAUAUUCAGCCGGUCUGAUGAGUCUUUUGUAAGACGAAACAGC [UUUGUA] , result: 2.01
